- TEST PROTOCOL: compounds altering in vitro BBB leakiness – cell-based, FITC-avidin fluorescence, HTS, primary screen (AID 1963498); further: test concentration not given here
- EXPERIMENTAL PARAMETERS: brain endothelial barrier, actives lie on both sides
Activity calls are given as the source filed them. No stated cut-off is given here; in the data, active means fold change permeability below about 0.7 or above about 1.3; inactive means in between.
Outcome (select one): active, inactive

Problem: Call for entry "O=C(O)c1ccccc1Nc1ccccc1" :
Result: inactive

Problem: Call for entry "CCc1ccc2c(-c3cccc(Cl)c3)nc(=O)n(CC)c2n1" :
Result: active

Problem: Call for entry OC(CCN1CCCCC1)(c1ccccc1)C1CCCCC1 (stereo unspecified) :
Result: inactive

Problem: Call for entry "O=C(O)[C@H]1NCCC[C@H]1C(=O)O" :
Result: inactive

Problem: Call for entry "O=C(O)CCc1ccc(NCc2cccc(Oc3ccccc3)c2)cc1" :
Result: active

Problem: Call for entry "CCCCCCCCCCCCCCCCCCc1ccc(C(=O)/C=C/C(=O)O)cc1" :
Result: inactive

Problem: Call for entry "O=c1c(O)c(-c2cc(O)c(O)c(O)c2)oc2cc(O)cc(O)c12" :
Result: active

Problem: Call for entry NS(=O)(=O)c1cc2c(cc1Cl)NC(C1CC3C=CC1C3)NS2(=O)=O (stereo unspecified) :
Result: active

Problem: Call for entry "O=C1Nc2ccc(I)cc2/C1=C/c1cc(Br)c(O)c(Br)c1" :
Result: active

Problem: Call for entry CCNC(=O)[C@H]1O[C@@H](n2cnc3c(N)nc(NCCc4ccc(CCC(=O)O)cc4)nc32)C(O)[C@H]1O (stereo partly specified) :
Result: inactive

Problem: Call for entry "CCCCC1C(=O)N(c2ccccc2)N(c2ccccc2)C1=O" :
Result: inactive

Problem: Call for entry "C=C1C(=O)O[C@@H]2[C@H]3O[C@]3(C)CC/C=C(\C)CC[C@@H]12" :
Result: active

Problem: Call for entry Cc1nc2n(c(=O)c1CCN1CCC(c3noc4cc(F)ccc34)CC1)CCCC2O (stereo unspecified) :
Result: inactive

Problem: Call for entry "C[C@]12CCC(=O)C=C1CC[C@@H]1[C@@H]2CC[C@@]2(C)[C@H]1CC[C@]2(O)C(=O)CO" :
Result: inactive

Problem: Call for entry "Cc1cc(CN)cc(C)c1NC(=O)c1ccc(-c2cc(Cl)ccc2Cl)o1" :
Result: active

Problem: Call for entry "C[C@]12CC[C@@H]3c4ccc(O)cc4CC[C@H]3[C@@H]1CC[C@@H]2O" :
Result: inactive

###

- TEST PROTOCOL: compounds altering in vitro BBB leakiness – cell-based, FITC-avidin fluorescence, HTS, primary screen (AID 1963498); further: test concentration not given here
- EXPERIMENTAL PARAMETERS: brain endothelial barrier, actives lie on both sides
Active and inactive are the calls of the source. Rule as the data show it: active = fold change permeability below about 0.7 or above about 1.3; inactive = in between.
Outcome (select one): active, inactive

Problem: Call for entry "NC12CC3CC(CC(C3)C1)C2" :
Result: inactive

Problem: Call for entry "C#CCN(C)CCCOc1ccc(Cl)cc1Cl" :
Result: active

Problem: Call for entry "NC/C=C\C(=O)O" :
Result: inactive

Problem: Call for entry "O=C(Nc1cccc(C(=O)Nc2ccc(S(=O)(=O)O)c3cc(S(=O)(=O)O)cc(S(=O)(=O)O)c23)c1)Nc1cccc(C(=O)Nc2ccc(S(=O)(=O)O)c3cc(S(=O)(=O)O)cc(S(=O)(=O)O)c23)c1" :
Result: inactive

Problem: Call for entry "COc1cc2nc(N3CCCN(C)CC3)nc(NC3CCN(Cc4ccccc4)CC3)c2cc1OC" :
Result: active

Problem: Call for entry CO/N=C(\C(=O)N[C@@H]1C(=O)N2C(C(=O)O)=C(COC(C)=O)CS[C@H]12)c1csc(N)n1 (stereo in doubt) :
Result: inactive

Problem: Call for entry CN1CCN2c3ccccc3Cc3ccccc3C2C1 (stereo not drawn) :
Result: inactive

Problem: Call for entry "c1ccc2c(CC3=NCCN3)cccc2c1" :
Result: inactive

Problem: Call for entry "Cn1c(=O)c2c(ncn2CC2OCCO2)n(C)c1=O" :
Result: inactive

Problem: Call for entry "Oc1ccccc1-c1cc(-c2ccccc2F)[nH]n1" :
Result: inactive

Problem: Call for entry Nc1ncnc2c1c(-c1cccc(OCc3ccccc3)c1)cn2C1CC(CN2CCC2)C1 (stereo not drawn) :
Result: inactive

Problem: Call for entry C=CCN1CCc2c(cc(O)c(O)c2Cl)C(c2ccccc2)C1 (stereo not drawn) :
Result: inactive

Problem: Call for entry "Nc1ccn([C@@H]2O[C@H](CO)[C@@H](O)[C@@H]2O)c(=O)n1" :
Result: inactive

###

- TEST PROTOCOL: compounds altering in vitro BBB leakiness – cell-based, FITC-avidin fluorescence, HTS, primary screen (AID 1963498); further: test concentration not given here
- EXPERIMENTAL PARAMETERS: brain endothelial barrier, actives lie on both sides
The label t is reserved for fold change permeability strictly under 1; f covers values equal to or above it.

Problem: Please indicate whether the reported fold change permeability of "O=C1c2ccccc2-c2n[nH]c3cccc1c23" is strictly below 1.
Result: f

Problem: Please indicate whether the reported fold change permeability of "N#Cc1cc([N+](=O)[O-])c2sc(C(N)=O)[n+]([O-])c2c1" is strictly below 1.
Result: f

Problem: Please indicate whether the reported fold change permeability of "O=C1c2ccccc2C(=O)c2c(NCCc3ccc(O)cc3)ccc(NCCc3ccc(O)cc3)c21" is strictly below 1.
Result: f

Problem: Please indicate whether the reported fold change permeability of CC(C)(C)NCC(O)c1cc(O)cc(O)c1 (centres undefined) is strictly below 1.
Result: t

Problem: Please indicate whether the reported fold change permeability of "CCN(CC)CCOC(=O)C1(C2CCCCC2)CCCCC1" is strictly below 1.
Result: f

Problem: Please indicate whether the reported fold change permeability of COc1ccc(CCN(C)CCCC(C#N)(c2cc(OC)c(OC)c(OC)c2)C(C)C)cc1OC (centres undefined) is strictly below 1.
Result: t

Problem: Please indicate whether the reported fold change permeability of "COc1cc(-c2cc(-c3ccc(N4CCNCC4)cc3)cnc2C)cc(OC)c1OC" is strictly below 1.
Result: f

###

- TEST PROTOCOL: compounds altering in vitro BBB leakiness – cell-based, FITC-avidin fluorescence, HTS, primary screen (AID 1963498); further: test concentration not given here
- EXPERIMENTAL PARAMETERS: brain endothelial barrier, actives lie on both sides
Activity calls are given as the source filed them. No stated cut-off is given here; in the data, active means fold change permeability below about 0.7 or above about 1.3; inactive means in between.
Outcome (select one): active, inactive

Problem: Call for entry "NC(N)=NCCC[C@H](N)C(=O)O" :
Result: inactive

Problem: Call for entry "Cc1ccc(CNCC2(F)CCN(C(=O)c3ccc(F)c(Cl)c3)CC2)nc1" :
Result: active

Problem: Call for entry "CCO/C([O-])=N/c1c[n+](N2CCOCC2)no1" :
Result: inactive

Problem: Call for entry "COc1ccc(-n2c(SCc3nc(-c4ccc(C)cc4)no3)nnc2-c2ccncc2)cc1" :
Result: inactive

Problem: Call for entry "O=c1[nH]c(=S)[nH]c(-c2ccccc2)c1Cc1c(O)ccc2ccccc12" :
Result: inactive

Problem: Call for entry "CC#C[C@]1(O)CC[C@H]2[C@@H]3CCC4=CC(=O)CCC4=C3[C@@H](c3ccc(N(C)C)cc3)C[C@@]21C" :
Result: inactive

Problem: Call for entry Nc1ccc(CCNc2ncnc3c2ncn3C2OC(CO)C(O)C2O)cc1 (centres undefined) :
Result: inactive

Problem: Call for entry "N=C(N)c1ccc(-c2ccc(-c3ccc(C(=N)N)cc3)o2)cc1" :
Result: active

Problem: Call for entry "CN(C)CCCNC(=O)c1ccc(-c2cc(O)c3ncccc3c2)cc1" :
Result: inactive

Problem: Call for entry "C=C(Cc1ccccc1Cl)C(=O)OCC" :
Result: inactive

Problem: Call for entry COc1cccc(OC)c1OCCNCC1CSc2ccccc2O1 (centres undefined) :
Result: inactive

Problem: Call for entry "OC1(c2ccc(Cl)cc2)CCN(Cc2c[nH]c3ccccc23)CC1" :
Result: active

Problem: Call for entry "Nc1ccc2c3c(cccc13)C(=O)NC2=O" :
Result: active

Problem: Call for entry "C[C@@]12C(=O)OC(=O)[C@]1(C)[C@H]1CC[C@@H]2O1" :
Result: inactive

Problem: Call for entry "CN(C(=O)CCCOc1ccc2[nH]c(=O)ccc2c1)C1CCCCC1" :
Result: inactive

Problem: Call for entry "O=C(NCc1ccc(F)cc1)C1CCN(S(=O)(=O)c2cc(Cl)cc(Cl)c2)CC1" :
Result: active

Problem: Call for entry "CC1(C)NC(=O)N(c2ccc([N+](=O)[O-])c(C(F)(F)F)c2)C1=O" :
Result: inactive

Problem: Call for entry "O=C(CCCN1CCC(O)(c2cccc(C(F)(F)F)c2)CC1)c1ccc(F)cc1" :
Result: active

Problem: Call for entry "c1ccc(-c2ccccn2)nc1" :
Result: inactive

Problem: Call for entry "COC(=O)C1=CO[C@@H](O)[C@@H]2C(CO)=CC[C@H]12" :
Result: active

Problem: Call for entry "COc1ccccc1N1CCN(CCN(C(=O)c2ccc(F)cc2)c2ccccn2)CC1" :
Result: inactive

Problem: Call for entry "Clc1ccc2nsnc2c1NC1=NCCN1" :
Result: active

Problem: Call for entry "O=C(O)Cc1ccc(O)c(O)c1" :
Result: inactive

Problem: Call for entry O=C1NC(=O)C(Cc2ccc3cc(OCc4ccccc4F)ccc3c2)S1 (centres undefined) :
Result: active
